tested on: 317291-083-R-J1-PDC complex spheroids, viability; test: Anticancer human tumor 317291-083-R-J1-PDC patient-derived soft tissue sarcoma cell line growth inhibition [GQUAD]; conditions: second compound 0.1 µM; first compound 0.316 µM; stronger effect = lower value
parameter: viability, T/C (%)
Write the number in % without appending the unit.

Give its viability, T/C value. Item: O=C(NO)c1cnc(N2CCN(S(=O)(=O)c3ccc4ccccc4c3)CC2)nc1 + Cc1[nH]c2ccc(F)cc2c1-c1nc2c3cccnc3c3ncccc3c2[nH]1
22.1

# get_value(readout='viability, T/C', item= C#Cc1c(F)ccc2cc(O)cc(-c3ncc4c(N5CC6CCC(C5)N6)nc(OCC56CCCN5CC(F)C6)nc4c3F)c12 (stereo unspecified) + Cc1[nH]c2ccc(F)cc2c1-c1nc2c3cccnc3c3ncccc3c2[nH]1 )
94.9

Any idea what viability, T/C was measured for CCCS(=O)(=O)Nc1ccc(F)c(C(=O)c2c[nH]c3ncc(-c4ccc(Cl)cc4)cc23)c1F + Cc1cnc(CNC(=O)c2c(=O)c3ccc(N4CCCN(C)CC4)nc3n3c2sc2ccccc23)cn1 ?
67.1

Item COc1ncnc(C2CC2)c1-c1ncc2cnn(Cc3ccc(-c4nc(C(F)(F)F)cn4C(C)C)cc3)c2n1 + Cc1[nH]c2ccc(F)cc2c1-c1nc2c3cccnc3c3ncccc3c2[nH]1 has what recorded viability, T/C?
68.3

Quick one: viability, T/C of O=c1[nH]cc(F)c(=O)[nH]1 + Cc1cnc(CNC(=O)c2c(=O)c3ccc(N4CCCN(C)CC4)nc3n3c2sc2ccccc23)cn1 ?
60.9

# viability, T/C lookup, item CC1COCCN1c1cc(C2(S(C)(=N)=O)CC2)nc(-c2ccnc3[nH]ccc23)n1 (stereo unspecified) + Cc1[nH]c2ccc(F)cc2c1-c1nc2c3cccnc3c3ncccc3c2[nH]1
85.8

What value of viability, T/C has been recorded for this entry: Cc1cccc(N(C)C(=O)C2C(O)CCN2c2nc(C)cc(C(F)(F)F)c2C#N)c1 (stereo unspecified) + Cc1cnc(CNC(=O)c2c(=O)c3ccc(N4CCCN(C)CC4)nc3n3c2sc2ccccc23)cn1
62.3

Given the entry C=CCn1c(=O)c2cnc(Nc3ccc(N4CCN(C)CC4)cc3)nc2n1-c1cccc(C(C)(C)O)n1 + Cc1[nH]c2ccc(F)cc2c1-c1nc2c3cccnc3c3ncccc3c2[nH]1 , report its measured viability, T/C.
24.4

So what's the measured viability, T/C for this one? COc1cc(C2c3cc4c(cc3C(OC3OC5COC(C)OC5C(O)C3O)C3COC(=O)C23)OCO4)cc(OC)c1O (stereo unspecified) + CN(C)c1ccc(Nc2c3ccc(NC(=O)CCN4CCCC4)cc3nc3cc(NC(=O)CCN4CCCC4)ccc23)cc1
50.4

Request the reported viability, T/C associated with CCCS(=O)(=O)Nc1ccc(F)c(C(=O)c2c[nH]c3ncc(-c4ccc(Cl)cc4)cc23)c1F + CN(C)c1ccc(Nc2c3ccc(NC(=O)CCN4CCCC4)cc3nc3cc(NC(=O)CCN4CCCC4)ccc23)cc1
82.9

Dear colleague, I am looking for the recorded viability, T/C of the following compound: Nc1ccn(C2OC(CO)C(O)C2(F)F)c(=O)n1 (stereo unspecified) + CN(C)c1ccc(Nc2c3ccc(NC(=O)CCN4CCCC4)cc3nc3cc(NC(=O)CCN4CCCC4)ccc23)cc1
13.7

----------
system: 317291-083-R-J1-PDC complex spheroids, viability; assay: Anticancer human tumor 317291-083-R-J1-PDC cell line growth inhibition [GQUAD]; details: second compound 0.1 µM; first compound 3.16 µM; stronger effect = lower value;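 further: spheroids exposed to compounds for one week before readout; percent viability relative to DMSO vehicle wells taken as 100%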
Assign viability, T/C to each entry below.
Give your result in % as a bare value.

Item under review: CC1COCCN1c1cc(C2(S(C)(=N)=O)CC2)nc(-c2ccnc3[nH]ccc23)n1 (stereo not drawn) + Cc1[nH]c2ccc(F)cc2c1-c1nc2c3cccnc3c3ncccc3c2[nH]1 . Reported viability, T/C?
25.2

Form field: reported viability, T/C of Nc1ccn(C2OC(CO)C(O)C2(F)F)c(=O)n1 (stereo not drawn) + Cc1[nH]c2ccc(F)cc2c1-c1nc2c3cccnc3c3ncccc3c2[nH]1
11

Endpoint output: viability, T/C of COc1ncnc(C2CC2)c1-c1ncc2cnn(Cc3ccc(-c4nc(C(F)(F)F)cn4C(C)C)cc3)c2n1 + Cc1[nH]c2ccc(F)cc2c1-c1nc2c3cccnc3c3ncccc3c2[nH]1 . Value?
93.4

----------
tested on: 317291-083-R-J1-PDC complex spheroids, viability; assay: Anticancer human tumor 317291-083-R-J1-PDC cell line growth inhibition [GQUAD]; details: second compound 0.1 µM; first compound 3.16 µM; active = viability on the fitted dose curve at most 10% of control; inactive = the rest;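 further: spheroids exposed to compounds for one week before readout; percent viability relative to DMSO vehicle wells taken as 100%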
Your reply should match one of these outcome classes. active, inactive

// param item: O=C(NO)c1cnc(N2CCN(S(=O)(=O)c3ccc4ccccc4c3)CC2)nc1 + Cc1cnc(CNC(=O)c2c(=O)c3ccc(N4CCCN(C)CC4)nc3n3c2sc2ccccc23)cn1 ; yields the recorded call
active

What did this assay record as the result for COc1cc(C2c3cc4c(cc3C(OC3OC5COC(C)OC5C(O)C3O)C3COC(=O)C23)OCO4)cc(OC)c1O (stereo not given) + Cc1[nH]c2ccc(F)cc2c1-c1nc2c3cccnc3c3ncccc3c2[nH]1 ?
inactive

Name the outcome recorded for COc1cccc2c1C(=O)c1c(O)c3c(c(O)c1C2=O)CC(O)(C(=O)CO)CC3OC1CC(N)C(O)C(C)O1 (stereo not given) + CN(C)c1ccc(Nc2c3ccc(NC(=O)CCN4CCCC4)cc3nc3cc(NC(=O)CCN4CCCC4)ccc23)cc1 in the assay.
active

Hey, what did the test say about CC(C)n1c(=O)n(C)c2cnc3cc(F)c(-c4ccc(OCCCN5CCCCC5)nc4)cc3c21 + Cc1[nH]c2ccc(F)cc2c1-c1nc2c3cccnc3c3ncccc3c2[nH]1 ?
inactive

So what was the verdict on CC(=O)O[C@H]1C(=O)[C@@]2(C)[C@H]([C@H](OC(=O)c3ccccc3)[C@]3(O)C[C@H](OC(=O)[C@H](O)[C@@H](NC(=O)c4ccccc4)c4ccccc4)C(C)=C1C3(C)C)[C@]1(OC(C)=O)CO[C@@H]1C[C@@H]2O + Cc1[nH]c2ccc(F)cc2c1-c1nc2c3cccnc3c3ncccc3c2[nH]1 in this test?
inactive

Check the results log: what was the call for CC(C)(O)C1CCC(Nc2ccc3ncc(-c4cccc(C(F)(F)F)c4)n3n2)CC1 (stereo not given) + CN(C)c1ccc(Nc2c3ccc(NC(=O)CCN4CCCC4)cc3nc3cc(NC(=O)CCN4CCCC4)ccc23)cc1 ?
active

Please indicate how the test categorized COc1ccc([C@@H](O)c2cc(-c3ncnc4cc(N5CCOCC5)ccc34)c(F)cc2Cl)nn1 + Cc1cnc(CNC(=O)c2c(=O)c3ccc(N4CCCN(C)CC4)nc3n3c2sc2ccccc23)cn1 .
inactive

Dear colleague, could you share the recorded outcome for COc1ccc([C@@H](O)c2cc(-c3ncnc4cc(N5CCOCC5)ccc34)c(F)cc2Cl)nn1 + Cc1[nH]c2ccc(F)cc2c1-c1nc2c3cccnc3c3ncccc3c2[nH]1 when you have a moment?
inactive

Please let me know the test result on file for C=CCn1c(=O)c2cnc(Nc3ccc(N4CCN(C)CC4)cc3)nc2n1-c1cccc(C(C)(C)O)n1 + CN(C)c1ccc(Nc2c3ccc(NC(=O)CCN4CCCC4)cc3nc3cc(NC(=O)CCN4CCCC4)ccc23)cc1 .
active

Any idea what this test logged for COc1cc(C2c3cc4c(cc3C(OC3OC5COC(C)OC5C(O)C3O)C3COC(=O)C23)OCO4)cc(OC)c1O (stereo not given) + CN(C)c1ccc(Nc2c3ccc(NC(=O)CCN4CCCC4)cc3nc3cc(NC(=O)CCN4CCCC4)ccc23)cc1 ?
inactive

----------
system: 317291-083-R-J1-PDC complex spheroids, viability; assay: Anticancer human tumor 317291-083-R-J1-PDC cell line growth inhibition [GQUAD]; settings: second compound 1 µM; first compound 0.000999 µM; stronger effect = lower value;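 further: spheroids exposed to compounds for one week before readout; percent viability relative to DMSO vehicle wells taken as 100%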
parameter: viability, T/C (%)
// return numeric value only (unit: %, not printed)

Any idea what its viability, T/C is? The compound is CCc1c2c(nc3ccc(O)cc13)-c1cc3c(c(=O)n1C2)COC(=O)[C@]3(O)CC + CN(C)c1ccc(Nc2c3ccc(NC(=O)CCN4CCCC4)cc3nc3cc(NC(=O)CCN4CCCC4)ccc23)cc1
28.4

Please give the measured viability, T/C for this compound: CCc1c2c(nc3ccc(O)cc13)-c1cc3c(c(=O)n1C2)COC(=O)[C@]3(O)CC + Cc1[nH]c2ccc(F)cc2c1-c1nc2c3cccnc3c3ncccc3c2[nH]1
75.8

Sample Cn1ncnc1[C@H]1c2n[nH]c(=O)c3cc(F)cc(c23)N[C@@H]1c1ccc(F)cc1 + CN(C)c1ccc(Nc2c3ccc(NC(=O)CCN4CCCC4)cc3nc3cc(NC(=O)CCN4CCCC4)ccc23)cc1 — what was its viability, T/C?
54.3

Please look up its viability, T/C: CC[C@@]1(O)C(=O)OCc2c1cc1n(c2=O)Cc2cc3c(CN(C)C)c(O)ccc3nc2-1 + Cc1[nH]c2ccc(F)cc2c1-c1nc2c3cccnc3c3ncccc3c2[nH]1
98.8

Entry under review: Cc1[nH]c2ccccc2c1CCNCc1ccc(/C=C/C(=O)NO)cc1 + CN(C)c1ccc(Nc2c3ccc(NC(=O)CCN4CCCC4)cc3nc3cc(NC(=O)CCN4CCCC4)ccc23)cc1 . Reported viability, T/C?
48.6

Requested field: viability, T/C. Item: Cn1ncnc1[C@H]1c2n[nH]c(=O)c3cc(F)cc(c23)N[C@@H]1c1ccc(F)cc1 + Cc1cnc(CNC(=O)c2c(=O)c3ccc(N4CCCN(C)CC4)nc3n3c2sc2ccccc23)cn1
32.2

I have this compound here, CC[C@@]1(O)C(=O)OCc2c1cc1n(c2=O)Cc2cc3c(CN(C)C)c(O)ccc3nc2-1 + Cc1cnc(CNC(=O)c2c(=O)c3ccc(N4CCCN(C)CC4)nc3n3c2sc2ccccc23)cn1 , and I need its recorded viability, T/C.
35.7

Endpoint output: viability, T/C of Cn1ncnc1[C@H]1c2n[nH]c(=O)c3cc(F)cc(c23)N[C@@H]1c1ccc(F)cc1 + Cc1[nH]c2ccc(F)cc2c1-c1nc2c3cccnc3c3ncccc3c2[nH]1 . Value?
120

Report viability, T/C for Cc1[nH]c2ccccc2c1CCNCc1ccc(/C=C/C(=O)NO)cc1 + Cc1[nH]c2ccc(F)cc2c1-c1nc2c3cccnc3c3ncccc3c2[nH]1 please.
59.9
